settings: in n-propanol, 283.15 K
readout: solubility (mole fraction)

• CCc1cccc2c3c([nH]c12)C(CC)(CC(=O)O)OCC3 (stereo unspecified) = 0.0391

---

details: in toluene, 298.15 K
readout: solubility (mole fraction)

- CCc1cccc2c3c([nH]c12)C(CC)(CC(=O)O)OCC3 (stereo unspecified): 0.00316

---

conditions: in isobutyl acetate, 323.15 K
readout: solubility (mole fraction)

* CCc1cccc2c3c([nH]c12)C(CC)(CC(=O)O)OCC3 (stereo unspecified) | 0.108

---

conditions: in n-butyl acetate, 288.15 K
readout: solubility (mole fraction)

* CCc1cccc2c3c([nH]c12)C(CC)(CC(=O)O)OCC3 (stereo unspecified) | 0.0563

---

settings: in isopentyl acetate, 318.15 K
readout: solubility (mole fraction)

• CCc1cccc2c3c([nH]c12)C(CC)(CC(=O)O)OCC3 (stereo unspecified) = 0.0944

---

settings: in acetone, 288.15 K
readout: solubility (mole fraction)

- CCc1cccc2c3c([nH]c12)C(CC)(CC(=O)O)OCC3 (stereo unspecified): 0.109

---

details: in isobutanol, 303.15 K
readout: solubility (mole fraction)

- CCc1cccc2c3c([nH]c12)C(CC)(CC(=O)O)OCC3 (stereo unspecified): 0.0594

---

conditions: in toluene, 293.15 K
readout: solubility (mole fraction)

• CCc1cccc2c3c([nH]c12)C(CC)(CC(=O)O)OCC3 (stereo unspecified) = 0.0024

---

details: in isobutanol, 298.15 K
readout: solubility (mole fraction)

* CCc1cccc2c3c([nH]c12)C(CC)(CC(=O)O)OCC3 (stereo unspecified) | 0.0476

---

conditions: in n-butyl acetate, 303.15 K
readout: solubility (mole fraction)

• CCc1cccc2c3c([nH]c12)C(CC)(CC(=O)O)OCC3 (stereo unspecified) = 0.0748

---

settings: in isopentyl acetate, 288.15 K
readout: solubility (mole fraction)

- CCc1cccc2c3c([nH]c12)C(CC)(CC(=O)O)OCC3 (stereo unspecified): 0.0509

---

conditions: in isopentyl acetate, 303.15 K
readout: solubility (mole fraction)

* CCc1cccc2c3c([nH]c12)C(CC)(CC(=O)O)OCC3 (stereo unspecified) | 0.068

---

details: in n-butyl acetate, 278.15 K
readout: solubility (mole fraction)

* CCc1cccc2c3c([nH]c12)C(CC)(CC(=O)O)OCC3 (stereo unspecified) | 0.0455

---

conditions: in n-butanol, 303.15 K
readout: solubility (mole fraction)

- CCc1cccc2c3c([nH]c12)C(CC)(CC(=O)O)OCC3 (stereo unspecified): 0.078

---

conditions: in acetone, 323.15 K
readout: solubility (mole fraction)

• CCc1cccc2c3c([nH]c12)C(CC)(CC(=O)O)OCC3 (stereo unspecified) = 0.178

---

conditions: in isopentyl acetate, 298.15 K
readout: solubility (mole fraction)

• CCc1cccc2c3c([nH]c12)C(CC)(CC(=O)O)OCC3 (stereo unspecified) = 0.0629

---

conditions: in n-butanol, 293.15 K
readout: solubility (mole fraction)

• CCc1cccc2c3c([nH]c12)C(CC)(CC(=O)O)OCC3 (stereo unspecified) = 0.0573

---

details: in isobutyl acetate, 303.15 K
readout: solubility (mole fraction)

- CCc1cccc2c3c([nH]c12)C(CC)(CC(=O)O)OCC3 (stereo unspecified): 0.07

---

settings: in isobutanol, 313.15 K
readout: solubility (mole fraction)

- CCc1cccc2c3c([nH]c12)C(CC)(CC(=O)O)OCC3 (stereo unspecified): 0.086

---

conditions: in dichloromethane, 283.15 K
readout: solubility (mole fraction)

- CCc1cccc2c3c([nH]c12)C(CC)(CC(=O)O)OCC3 (stereo unspecified): 0.0124

---

conditions: in dichloromethane, 303.15 K
readout: solubility (mole fraction)

• CCc1cccc2c3c([nH]c12)C(CC)(CC(=O)O)OCC3 (stereo unspecified) = 0.0271

---

settings: in n-butyl acetate, 323.15 K
readout: solubility (mole fraction)

- CCc1cccc2c3c([nH]c12)C(CC)(CC(=O)O)OCC3 (stereo unspecified): 0.111

---

details: in acetone, 313.15 K
readout: solubility (mole fraction)

- CCc1cccc2c3c([nH]c12)C(CC)(CC(=O)O)OCC3 (stereo unspecified): 0.157

---

settings: in dichloromethane, 298.15 K
readout: solubility (mole fraction)

* CCc1cccc2c3c([nH]c12)C(CC)(CC(=O)O)OCC3 (stereo unspecified) | 0.0229

---

conditions: in isopropanol, 278.15 K
readout: solubility (mole fraction)

• CCc1cccc2c3c([nH]c12)C(CC)(CC(=O)O)OCC3 (stereo unspecified) = 0.0267

---

settings: in n-butanol, 298.15 K
readout: solubility (mole fraction)

* CCc1cccc2c3c([nH]c12)C(CC)(CC(=O)O)OCC3 (stereo unspecified) | 0.0675

---

conditions: in n-butyl acetate, 308.15 K
readout: solubility (mole fraction)

- CCc1cccc2c3c([nH]c12)C(CC)(CC(=O)O)OCC3 (stereo unspecified): 0.0825

---

settings: in methyl acetate, 313.15 K
readout: solubility (mole fraction)

• CCc1cccc2c3c([nH]c12)C(CC)(CC(=O)O)OCC3 (stereo unspecified) = 0.0921

---

conditions: in isobutyl acetate, 293.15 K
readout: solubility (mole fraction)

* CCc1cccc2c3c([nH]c12)C(CC)(CC(=O)O)OCC3 (stereo unspecified) | 0.0584

---

conditions: in n-butanol, 313.15 K
readout: solubility (mole fraction)

* CCc1cccc2c3c([nH]c12)C(CC)(CC(=O)O)OCC3 (stereo unspecified) | 0.0994

---

settings: in isopropanol, 283.15 K
readout: solubility (mole fraction)

• CCc1cccc2c3c([nH]c12)C(CC)(CC(=O)O)OCC3 (stereo unspecified) = 0.0307

---

settings: in n-pentyl acetate, 313.15 K
readout: solubility (mole fraction)

• CCc1cccc2c3c([nH]c12)C(CC)(CC(=O)O)OCC3 (stereo unspecified) = 0.0892

---

conditions: in isobutyl acetate, 308.15 K
readout: solubility (mole fraction)

• CCc1cccc2c3c([nH]c12)C(CC)(CC(=O)O)OCC3 (stereo unspecified) = 0.0774

---

conditions: in n-butyl acetate, 318.15 K
readout: solubility (mole fraction)

• CCc1cccc2c3c([nH]c12)C(CC)(CC(=O)O)OCC3 (stereo unspecified) = 0.101

---

conditions: in isopentyl acetate, 283.15 K
readout: solubility (mole fraction)

• CCc1cccc2c3c([nH]c12)C(CC)(CC(=O)O)OCC3 (stereo unspecified) = 0.0457

---

conditions: in isobutyl acetate, 278.15 K
readout: solubility (mole fraction)

- CCc1cccc2c3c([nH]c12)C(CC)(CC(=O)O)OCC3 (stereo unspecified): 0.0428

---

settings: in isopropanol, 293.15 K
readout: solubility (mole fraction)

• CCc1cccc2c3c([nH]c12)C(CC)(CC(=O)O)OCC3 (stereo unspecified) = 0.0444

---

details: in n-pentyl acetate, 288.15 K
readout: solubility (mole fraction)

* CCc1cccc2c3c([nH]c12)C(CC)(CC(=O)O)OCC3 (stereo unspecified) | 0.0558

---

details: in methyl acetate, 288.15 K
readout: solubility (mole fraction)

* CCc1cccc2c3c([nH]c12)C(CC)(CC(=O)O)OCC3 (stereo unspecified) | 0.0578

---

conditions: in dichloromethane, 278.15 K
readout: solubility (mole fraction)

• CCc1cccc2c3c([nH]c12)C(CC)(CC(=O)O)OCC3 (stereo unspecified) = 0.00979

---

details: in n-propanol, 308.15 K
readout: solubility (mole fraction)

• CCc1cccc2c3c([nH]c12)C(CC)(CC(=O)O)OCC3 (stereo unspecified) = 0.0849

---

conditions: in n-pentyl acetate, 318.15 K
readout: solubility (mole fraction)

* CCc1cccc2c3c([nH]c12)C(CC)(CC(=O)O)OCC3 (stereo unspecified) | 0.0983

---

conditions: in n-propanol, 278.15 K
readout: solubility (mole fraction)

- CCc1cccc2c3c([nH]c12)C(CC)(CC(=O)O)OCC3 (stereo unspecified): 0.0342

---

settings: in n-pentyl acetate, 283.15 K
readout: solubility (mole fraction)

* CCc1cccc2c3c([nH]c12)C(CC)(CC(=O)O)OCC3 (stereo unspecified) | 0.0503

---

settings: in n-butyl acetate, 298.15 K
readout: solubility (mole fraction)

* CCc1cccc2c3c([nH]c12)C(CC)(CC(=O)O)OCC3 (stereo unspecified) | 0.0682

---

details: in acetone, 303.15 K
readout: solubility (mole fraction)

- CCc1cccc2c3c([nH]c12)C(CC)(CC(=O)O)OCC3 (stereo unspecified): 0.136

---

settings: in n-butyl acetate, 283.15 K
readout: solubility (mole fraction)

* CCc1cccc2c3c([nH]c12)C(CC)(CC(=O)O)OCC3 (stereo unspecified) | 0.0507

---

details: in isopropanol, 323.15 K
readout: solubility (mole fraction)

- CCc1cccc2c3c([nH]c12)C(CC)(CC(=O)O)OCC3 (stereo unspecified): 0.127
